Every entry's value here was drawn from patent US20140112930A1.

# ASSAY TARGET: T1, Monomeric hAng-2FD (human, UniProt O15123 282-496)
# T1 construct: also called fibrinogen-like domain of human Ang2; Human Ang-2FD
# T1 sequence: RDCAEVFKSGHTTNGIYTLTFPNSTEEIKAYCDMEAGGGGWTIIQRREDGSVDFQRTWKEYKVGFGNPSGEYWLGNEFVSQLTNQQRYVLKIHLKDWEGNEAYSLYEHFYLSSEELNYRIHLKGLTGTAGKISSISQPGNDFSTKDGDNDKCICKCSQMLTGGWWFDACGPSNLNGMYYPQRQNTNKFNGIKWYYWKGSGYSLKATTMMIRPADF
# MEASUREMENT NOTES: SPR, captured Ab
pKd: −log10 of the molar value.

# BINDER, pKd
data = [
    ("H2M749N (antibody, V domains shown, also called H1M749N; H1M749) VH: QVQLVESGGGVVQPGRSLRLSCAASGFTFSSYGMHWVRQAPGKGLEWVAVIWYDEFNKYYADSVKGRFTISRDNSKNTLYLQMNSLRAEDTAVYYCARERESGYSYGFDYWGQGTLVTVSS VL: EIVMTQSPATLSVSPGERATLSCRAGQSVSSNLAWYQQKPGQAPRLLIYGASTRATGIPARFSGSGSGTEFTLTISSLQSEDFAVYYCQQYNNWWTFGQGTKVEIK", 8.86),
    ("H1H704P (antibody, V domains shown) VH: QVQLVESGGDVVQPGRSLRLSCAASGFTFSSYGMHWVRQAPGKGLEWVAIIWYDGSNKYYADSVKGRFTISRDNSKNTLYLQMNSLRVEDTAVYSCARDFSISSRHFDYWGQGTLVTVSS VL: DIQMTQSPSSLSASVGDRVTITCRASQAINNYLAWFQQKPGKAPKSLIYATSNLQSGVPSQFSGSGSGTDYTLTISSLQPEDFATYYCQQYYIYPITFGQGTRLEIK", 9.41),
    ("H1H690P (antibody, V domains shown) VH: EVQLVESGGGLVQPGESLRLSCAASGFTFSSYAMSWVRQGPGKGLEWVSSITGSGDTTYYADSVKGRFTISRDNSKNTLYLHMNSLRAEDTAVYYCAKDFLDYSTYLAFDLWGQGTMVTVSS VL: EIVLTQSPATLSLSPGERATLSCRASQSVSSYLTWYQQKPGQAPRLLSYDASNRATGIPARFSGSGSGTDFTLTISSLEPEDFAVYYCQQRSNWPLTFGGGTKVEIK", 9.23),
    ("H1H724N (antibody, V domains shown) VH: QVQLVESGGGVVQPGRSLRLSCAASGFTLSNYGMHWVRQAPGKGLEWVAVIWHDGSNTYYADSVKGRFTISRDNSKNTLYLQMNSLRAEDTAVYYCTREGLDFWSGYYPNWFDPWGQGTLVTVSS VL: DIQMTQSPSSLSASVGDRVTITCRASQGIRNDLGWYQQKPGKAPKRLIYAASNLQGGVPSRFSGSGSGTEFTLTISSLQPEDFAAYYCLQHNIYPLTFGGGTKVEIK", 8.62),
    ("H1H732N (antibody, V domains shown) VH: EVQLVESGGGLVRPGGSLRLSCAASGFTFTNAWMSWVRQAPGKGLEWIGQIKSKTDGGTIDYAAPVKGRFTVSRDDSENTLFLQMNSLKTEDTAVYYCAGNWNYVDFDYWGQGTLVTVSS VL: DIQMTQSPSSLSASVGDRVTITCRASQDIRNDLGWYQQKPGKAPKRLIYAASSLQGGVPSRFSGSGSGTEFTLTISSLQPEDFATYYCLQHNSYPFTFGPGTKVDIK", 6.58),
    ("H1H750N (antibody, V domains shown) VH: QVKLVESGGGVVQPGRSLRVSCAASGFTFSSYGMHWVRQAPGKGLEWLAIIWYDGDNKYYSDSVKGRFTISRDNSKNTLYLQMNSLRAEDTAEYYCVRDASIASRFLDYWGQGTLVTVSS VL: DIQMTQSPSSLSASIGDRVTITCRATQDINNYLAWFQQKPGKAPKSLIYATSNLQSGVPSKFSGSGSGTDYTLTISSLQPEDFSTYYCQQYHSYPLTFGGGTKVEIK", 9.10),
    ("H1H743N (antibody, V domains shown) VH: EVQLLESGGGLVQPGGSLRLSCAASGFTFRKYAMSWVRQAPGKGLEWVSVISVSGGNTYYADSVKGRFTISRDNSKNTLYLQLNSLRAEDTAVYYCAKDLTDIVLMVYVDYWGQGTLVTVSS VL: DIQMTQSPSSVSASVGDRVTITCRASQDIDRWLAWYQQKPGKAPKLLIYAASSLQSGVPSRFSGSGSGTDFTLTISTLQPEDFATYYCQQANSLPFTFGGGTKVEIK", 8.63),
    ("H1M724N (antibody, V domains shown) VH: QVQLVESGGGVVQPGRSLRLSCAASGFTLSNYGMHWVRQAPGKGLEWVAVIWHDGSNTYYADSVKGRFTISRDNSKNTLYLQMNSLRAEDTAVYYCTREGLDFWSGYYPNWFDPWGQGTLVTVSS VL: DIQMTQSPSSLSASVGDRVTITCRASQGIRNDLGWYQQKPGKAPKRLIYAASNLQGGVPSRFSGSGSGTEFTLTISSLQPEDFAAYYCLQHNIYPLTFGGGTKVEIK", 8.76),
    ("H1M728N (antibody, V domains shown) VH: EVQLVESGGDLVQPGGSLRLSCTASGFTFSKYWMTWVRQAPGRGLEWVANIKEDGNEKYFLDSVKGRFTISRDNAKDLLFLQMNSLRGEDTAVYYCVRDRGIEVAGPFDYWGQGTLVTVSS VL: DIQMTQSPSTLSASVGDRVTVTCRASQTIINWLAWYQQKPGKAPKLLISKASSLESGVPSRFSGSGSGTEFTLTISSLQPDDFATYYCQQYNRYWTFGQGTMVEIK", 8.93),
    ("H1H744N (antibody, V domains shown) VH: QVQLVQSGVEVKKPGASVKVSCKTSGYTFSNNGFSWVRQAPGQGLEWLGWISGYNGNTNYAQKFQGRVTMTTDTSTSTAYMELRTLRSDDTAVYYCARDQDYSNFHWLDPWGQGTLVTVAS VL: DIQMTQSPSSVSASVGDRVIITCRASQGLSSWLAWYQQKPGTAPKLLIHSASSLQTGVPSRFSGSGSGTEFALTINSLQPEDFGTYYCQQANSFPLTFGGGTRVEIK", 8.99),
]
